Target: Peroxisome proliferator-activated receptor alpha (Homo sapiens) (UniProt Q07869)
Sequence (Q07869 whole entry, the tested form may be a part): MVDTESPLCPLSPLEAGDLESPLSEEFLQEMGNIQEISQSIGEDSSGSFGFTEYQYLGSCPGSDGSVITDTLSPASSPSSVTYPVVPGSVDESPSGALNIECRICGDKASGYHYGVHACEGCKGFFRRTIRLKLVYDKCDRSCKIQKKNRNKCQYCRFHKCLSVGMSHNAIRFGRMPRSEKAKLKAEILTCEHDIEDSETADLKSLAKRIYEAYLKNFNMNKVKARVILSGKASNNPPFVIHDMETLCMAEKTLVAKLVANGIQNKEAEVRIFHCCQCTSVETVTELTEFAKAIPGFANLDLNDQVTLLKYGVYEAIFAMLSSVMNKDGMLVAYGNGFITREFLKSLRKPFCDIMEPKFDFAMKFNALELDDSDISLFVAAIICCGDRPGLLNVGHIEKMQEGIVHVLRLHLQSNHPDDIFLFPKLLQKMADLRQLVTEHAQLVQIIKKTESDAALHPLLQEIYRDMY
Experiment: Transactivation of human PPARalpha LBD expressed in african green monkey Cos7 cells co-transfected with fused GAL4-DBD at 10 uM after 14 hrs by Dual-Glo Luciferase reporter gene assay
Assay type: cell-based
Settings: COS-7
Activity calls are given as the source filed them. The calls are words filed in the database; no cut-off is given here.
Parameter measured: Activity

Some solved entries appear below for comparison.
Prompt: May I ask what Activity has been recorded for Cc1cccc(Nc2cc(Cl)nc(SC(C(=O)O)c3cccc4ccccc34)n2)c1C (stereo not given) ?
Completion: inactive

Prompt: Another compound to check: CC(C)CCNc1cc(Cl)nc(SC(C(=O)O)c2cccc3ccccc23)n1 (stereo not given)
Completion: inactive

Prompt: Another compound to check: O=C(O)C(Sc1nc(Cl)cc(NCCCc2ccccc2)n1)c1cccc2ccccc12 (stereo not given)
Completion: inactive

Prompt: Another compound to check: CCCCNc1cc(Cl)nc(SC(C(=O)O)c2cccc3ccccc23)n1 (stereo not given)
Completion: inactive

Prompt: Another compound to check: O=C(O)C(Sc1nc(Cl)cc(Nc2ccc3ccccc3c2)n1)c1cccc2ccccc12 (stereo not given)
Completion: inactive

Prompt: Another compound to check: O=C(O)C(Sc1nc(Cl)cc(NCCc2ccccc2)n1)c1cccc2ccccc12 (stereo not given)
Completion: inactive

Prompt: Another compound to check: CCc1ccc(CCOc2ccc(CC3SC(=O)NC3=O)cc2)nc1 (stereo not given)
Completion: inactive

Prompt: Another compound to check: O=C(O)C(Sc1nc(Cl)cc(Nc2ccc(F)cc2)n1)c1cccc2ccccc12 (stereo not given)
Completion: inactive

Prompt: Another compound to check: O=C(O)C(Sc1nc(Cl)cc(Nc2cccc(Cl)c2)n1)c1cccc2ccccc12 (stereo not given)
Completion: inactive

Please look at the following compound next.
Prompt: May I ask what Activity has been recorded for Cc1ccc(Nc2cc(Cl)nc(SC(C(=O)O)c3cccc4ccccc34)n2)cc1C (stereo not given) ?
Completion: inactive

* * *

Molecular target: Peroxisome proliferator-activated receptor gamma (Homo sapiens)
Sequence (P37231 whole entry): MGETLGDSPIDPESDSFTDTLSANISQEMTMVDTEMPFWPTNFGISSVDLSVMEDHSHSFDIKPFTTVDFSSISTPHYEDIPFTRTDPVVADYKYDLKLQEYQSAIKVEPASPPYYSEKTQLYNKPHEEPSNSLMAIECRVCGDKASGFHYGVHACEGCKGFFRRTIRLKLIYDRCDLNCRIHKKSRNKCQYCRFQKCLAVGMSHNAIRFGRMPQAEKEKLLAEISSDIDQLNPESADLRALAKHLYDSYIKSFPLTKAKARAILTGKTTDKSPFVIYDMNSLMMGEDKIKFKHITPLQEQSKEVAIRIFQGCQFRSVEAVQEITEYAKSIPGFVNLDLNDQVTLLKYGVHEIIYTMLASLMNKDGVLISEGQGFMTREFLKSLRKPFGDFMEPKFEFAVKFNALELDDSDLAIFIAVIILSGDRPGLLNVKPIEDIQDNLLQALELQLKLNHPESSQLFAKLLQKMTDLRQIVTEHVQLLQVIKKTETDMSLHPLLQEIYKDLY
Overview of reported EC50 across a group of compounds:
Just the number in µM, nothing appended.

Prompt: May I ask what EC50 has been recorded for O=C(O)C(Sc1nc(Cl)cc(Nc2ccc3c(c2)CCC3)n1)c1cccc2ccccc12 (stereo not drawn) ?
Completion: 6.8

Prompt: Another compound to check: Cc1cccc(Nc2cc(Cl)nc(SC(C(=O)O)c3cccc4ccccc34)n2)c1C (stereo not drawn)
Completion: 6.2

Please look at the following compound next.
Prompt: May I ask what EC50 has been recorded for O=C(O)C(Sc1nc(Cl)cc(Nc2ccc(F)cc2)n1)c1cccc2ccccc12 (stereo not drawn) ?
Completion: 13
